Origin of values: paper PMC1277818

- studySystem: T1, FHHDbf2-H6Mob1TM9 (Saccharomyces cerevisiae, UniProt P22204+P40484)
- T1 construct: made in house; host or cells: Hi5 insect cells (baculovirus)
- T1 sequence (P22204 1-572): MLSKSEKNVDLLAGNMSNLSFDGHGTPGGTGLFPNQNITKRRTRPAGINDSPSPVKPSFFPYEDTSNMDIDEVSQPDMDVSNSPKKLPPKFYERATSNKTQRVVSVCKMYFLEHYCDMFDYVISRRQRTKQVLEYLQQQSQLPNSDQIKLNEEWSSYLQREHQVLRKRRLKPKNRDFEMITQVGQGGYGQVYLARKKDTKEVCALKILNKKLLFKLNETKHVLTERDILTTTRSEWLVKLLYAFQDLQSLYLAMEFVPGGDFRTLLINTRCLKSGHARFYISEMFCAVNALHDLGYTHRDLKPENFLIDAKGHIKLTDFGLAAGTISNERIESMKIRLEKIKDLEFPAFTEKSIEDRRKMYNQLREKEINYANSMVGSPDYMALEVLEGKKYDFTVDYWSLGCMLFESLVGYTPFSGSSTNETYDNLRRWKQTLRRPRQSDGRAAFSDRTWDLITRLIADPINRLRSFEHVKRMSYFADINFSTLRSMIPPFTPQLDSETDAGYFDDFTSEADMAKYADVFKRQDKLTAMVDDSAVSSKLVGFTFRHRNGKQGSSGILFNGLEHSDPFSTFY
- T1 sequence (P40484 1-314 partner): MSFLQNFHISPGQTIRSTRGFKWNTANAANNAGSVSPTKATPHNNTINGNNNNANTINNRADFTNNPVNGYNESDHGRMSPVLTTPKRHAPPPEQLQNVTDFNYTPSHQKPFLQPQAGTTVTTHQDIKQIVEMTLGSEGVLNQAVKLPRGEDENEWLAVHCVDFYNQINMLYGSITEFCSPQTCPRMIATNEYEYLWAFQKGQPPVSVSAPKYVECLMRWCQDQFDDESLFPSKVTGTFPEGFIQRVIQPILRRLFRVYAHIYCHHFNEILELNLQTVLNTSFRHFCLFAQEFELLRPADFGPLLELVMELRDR
- measurementNotes: Yeast proteome chip assay
- Type: biochemical
- conditionSummary: Table 3; GST fusion proteins on proteome chip, [γ-33P]ATP, chips in duplicate, computer analysis
propertyName: Slide Signal (after normalization)
// no unit string in output, number only

Please review the following examples before continuing.
| molecule | Slide Signal (after normalization) |
| --- | --- |
| YIL010W: GST fusion yeast protein on proteome chip (protein, UniProt P40553 1-215, looked up, GST tag, GST fusion yeast protein on proteome chip) Peroxiredoxin DOT5: MGEALRRSTRIAISKRMLEEEESKLAPISTPEVPKKKIKTGPKHNANQAVVQEANRSSDVNELEIGDPIPDLSLLNEDNDSISLKKITENNRVVVFFVYPRASTPGCTRQACGFRDNYQELKKYAAVFGLSADSVTSQKKFQSKQNLPYHLLSDPKREFIGLLGAKKTPLSGSIRSHFIFVDGKLKFKRVKISPEVSVNDAKKEVLEVAEKFKEE | 0.2606 |
| YDL002C: GST fusion yeast protein on proteome chip (protein, UniProt Q03435 2-203, looked up, GST fusion, GST fusion yeast protein on proteome chip) Non-histone protein 10: SVEEKKRRLEELKDQNVVLGLAIQRSRLSVKRLKLEYGVLLERLESRIELDPELNCEDPLPTLASFKQELLTKPFRKSKTKRHKVKERDPNMPKRPTNAYLLYCEMNKERIRQNGSLDVTRDLAEGWKNLNEQDRKPYYKLYSEDRERYQMEMEIYNKKISNIDADDDKEENEQKIKNNEEGSSTKVADSKGGEDGSLVSSN | 0.8102 |

Let us examine a further case.
Prompt: // returns reported Slide Signal (after normalization) for input YMR072W: GST fusion yeast protein on proteome chip (protein, UniProt Q02486 27-183, looked up, GST tag, GST fusion yeast protein on proteome chip) ARS-binding factor 2, …: KASKRTQLRNELIKQGPKRPTSAYFLYLQDHRSQFVKENPTLRPAEISKIAGEKWQNLEADIKEKYISERKKLYSEYQKAKKEFDEKLPPKKPAGPFIKYANEVRSQVFAQHPDKSQLDLMKIIGDKWQSLDQSIKDKYIQEYKKAIQEYNARYPLN
Response: 0.7585
